Reference source: patent US20120045393A1

Listing: pEC50 of selected molecules
# Tested on: LHRH binding sites on human ovarian cancer cells (EFO-27);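 also: Cell-associated radioactivity on confluent EFO-27 monolayers in 96-well plates, measured by microplate scintillation counting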
pEC50: −log10 of the molar value. Non-standard residues stand in square brackets, D forms with d. Residues, ends and D or L forms follow the SMILES beside them. *: point of attachment. DOTA = O=C(O)CN1CCN(CC(=O)O)CCN(CC(=O)*)CCN(CC(=O)O)CC1; Bpa = N[C@@H](Cc1ccc(C(=O)c2ccccc2)cc1)C(=O)O; d2Nal = N[C@H](Cc1ccc2ccccc2c1)C(=O)O; azaGly = NNC(=O)O

MOLECULE	pEC50
CN(CC(=O)N[C@@H](Cc1c[nH]cn1)C(=O)N[C@@H](Cc1c[nH]c2ccccc12)C(=O)N[C@@H](CO)C(=O)N[C@@H](Cc1c[nH]cn1)C(=O)N[C@H](CCCNC(=N)N)C(=O)N[C@@H](Cc1c[nH]c2ccccc12)C(=O)N[C@H](C(=O)N1CCC[C@H]1C(=O)NNC(N)=O)C(c1ccccc1)c1ccccc1)C(=O)CN1CCN(CC(=O)O)CCN(CC(=O)O)CCN(CC(=O)O)CC1	5.34
N=C(N)NCCC[C@H](NC(=O)[C@@H](Cc1ccc2ccccc2c1)NC(=O)CN1CCN(CC(=O)O)CCN(CC(=O)O)CCN(CC(=O)O)CC1)C(=O)N[C@@H](Cc1c[nH]c2ccccc12)C(=O)N[C@@H](CC(=O)O)C(=O)N[C@@H](Cc1c[nH]cn1)C(=O)N[C@H](CCCNC(=N)N)C(=O)N[C@@H](Cc1c[nH]c2ccccc12)C(=O)N[C@@H](Cc1ccc(C(=O)c2ccccc2)cc1)C(=O)N1CCC[C@H]1C(=O)NNC(N)=O [BRU-2954] ({DOTA}-[d2Nal]RWDH[dR]W[Bpa]P[azaGly]-NH2)	5.38
CN(CC(=O)N[C@@H](Cc1c[nH]cn1)C(=O)N[C@@H](Cc1c[nH]c2ccccc12)C(=O)N[C@@H](CO)C(=O)N[C@@H](Cc1c[nH]cn1)C(=O)N[C@H](CCCNC(=N)N)C(=O)N[C@@H](Cc1c[nH]c2ccccc12)C(=O)N[C@@H](Cc1ccc2ccccc2c1)C(=O)N1CCC[C@H]1C(=O)NNC(N)=O)C(=O)CN1CCN(CC(=O)O)CCN(CC(=O)O)CCN(CC(=O)O)CC1	5.70
